meta.source: patent US7528175B2

- System: asthmatic mice
- PROTOCOL_DESCRIPTION: Airway resistance (Raw) response to methacholine in murine model of asthma (forced oscillation)
- Assay type: in vivo, Balb/cJ mice
- EXPERIMENTAL_PARAMETERS: 2 days of administration
QUANTITY_MEASURED: Decreased Raw

# COMPOUND, REPORTED_RESULT
records = [
    ("CC(C)(C)NCC(O)c1ccc(O)c(CO)c1 (stereo not shown)", "no"),
    ("COc1ccccc1OCCNCC(O)COc1cccc2[nH]c3ccccc3c12 (stereo not shown)", "no"),
    ("C=CCc1ccccc1OCC(O)CNC(C)C (stereo not shown)", "no"),
    ("CC(C)(C)NCC(O)COc1cccc2c1CC(O)C(O)C2 (stereo not shown)", "yes"),
]
